B1: glmS ribozyme (parent)
chain: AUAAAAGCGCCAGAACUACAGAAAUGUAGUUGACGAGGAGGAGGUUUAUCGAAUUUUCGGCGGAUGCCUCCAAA

Variants of: B1
Experiment: self-cleavage kobs at 10000 uM GlcN6P; higher = faster cleavage; RNA array
Conditions: with glucosamine-6-phosphate
Variants at the floor of the assay were thinned out.
Assign self-cleavage kobs at 10000 uM GlcN6P to each entry below.

Incoming: Param item = C34A A64C ; retrieve measured self-cleavage kobs at 10000 uM GlcN6P.
Outgoing: < 1e-05 s⁻¹

Incoming: Param item = C8U U46A ; retrieve measured self-cleavage kobs at 10000 uM GlcN6P.
Outgoing: < 1e-05 s⁻¹

Incoming: Param item = C11G G62C A64G C68G ; retrieve measured self-cleavage kobs at 10000 uM GlcN6P.
Outgoing: < 1e-05 s⁻¹

Incoming: Param item = A6U G60C C67A ; retrieve measured self-cleavage kobs at 10000 uM GlcN6P.
Outgoing: < 1e-05 s⁻¹

Incoming: Param item = U46C G62C ; retrieve measured self-cleavage kobs at 10000 uM GlcN6P.
Outgoing: < 1e-05 s⁻¹

Incoming: Param item = A12U G37C U45A A48U C68U ; retrieve measured self-cleavage kobs at 10000 uM GlcN6P.
Outgoing: < 1e-05 s⁻¹

Incoming: Param item = A33U A36C A39C G41C G44A U46G G51U C58U A64U ; retrieve measured self-cleavage kobs at 10000 uM GlcN6P.
Outgoing: < 1e-05 s⁻¹

Incoming: Param item = C10A A64U ; retrieve measured self-cleavage kobs at 10000 uM GlcN6P.
Outgoing: < 1e-05 s⁻¹

Incoming: Param item = A36C A39U U55A ; retrieve measured self-cleavage kobs at 10000 uM GlcN6P.
Outgoing: < 1e-05 s⁻¹

Incoming: Param item = C8A A33U U55G ; retrieve measured self-cleavage kobs at 10000 uM GlcN6P.
Outgoing: < 1e-05 s⁻¹

Incoming: Param item = G9A U45C ; retrieve measured self-cleavage kobs at 10000 uM GlcN6P.
Outgoing: < 1e-05 s⁻¹

Incoming: Param item = C8U C10G ; retrieve measured self-cleavage kobs at 10000 uM GlcN6P.
Outgoing: < 1e-05 s⁻¹

Incoming: Param item = A6U C58G ; retrieve measured self-cleavage kobs at 10000 uM GlcN6P.
Outgoing: < 1e-05 s⁻¹

Incoming: Param item = G7C A12G C67A ; retrieve measured self-cleavage kobs at 10000 uM GlcN6P.
Outgoing: < 1e-05 s⁻¹

Incoming: Param item = G29U C34A G59A U65C ; retrieve measured self-cleavage kobs at 10000 uM GlcN6P.
Outgoing: < 1e-05 s⁻¹

Incoming: Param item = A12C A33G ; retrieve measured self-cleavage kobs at 10000 uM GlcN6P.
Outgoing: < 1e-05 s⁻¹

Incoming: Param item = G7C C34G ; retrieve measured self-cleavage kobs at 10000 uM GlcN6P.
Outgoing: < 1e-05 s⁻¹

Incoming: Param item = G7A C16G ; retrieve measured self-cleavage kobs at 10000 uM GlcN6P.
Outgoing: < 1e-05 s⁻¹

Incoming: Param item = A15C A48G U69G ; retrieve measured self-cleavage kobs at 10000 uM GlcN6P.
Outgoing: < 1e-05 s⁻¹

Incoming: Param item = A12G A48G G63A A64G ; retrieve measured self-cleavage kobs at 10000 uM GlcN6P.
Outgoing: < 1e-05 s⁻¹

Incoming: Param item = G13A G44U G62U C71G ; retrieve measured self-cleavage kobs at 10000 uM GlcN6P.
Outgoing: < 1e-05 s⁻¹

Incoming: Param item = G35A U69C ; retrieve measured self-cleavage kobs at 10000 uM GlcN6P.
Outgoing: < 1e-05 s⁻¹

Incoming: Param item = A36C G38U U47C G51C ; retrieve measured self-cleavage kobs at 10000 uM GlcN6P.
Outgoing: < 1e-05 s⁻¹

Incoming: Param item = A33C G38C G51C A64C ; retrieve measured self-cleavage kobs at 10000 uM GlcN6P.
Outgoing: < 1e-05 s⁻¹

Incoming: Param item = G35U G41U ; retrieve measured self-cleavage kobs at 10000 uM GlcN6P.
Outgoing: < 1e-05 s⁻¹

Incoming: Param item = G29U G60A ; retrieve measured self-cleavage kobs at 10000 uM GlcN6P.
Outgoing: < 1e-05 s⁻¹

Incoming: Param item = C34G G43C U47A U49C U55G ; retrieve measured self-cleavage kobs at 10000 uM GlcN6P.
Outgoing: < 1e-05 s⁻¹

Incoming: Param item = A36C G41A ; retrieve measured self-cleavage kobs at 10000 uM GlcN6P.
Outgoing: < 1e-05 s⁻¹

Incoming: Param item = A6U C8A ; retrieve measured self-cleavage kobs at 10000 uM GlcN6P.
Outgoing: < 1e-05 s⁻¹

Incoming: Param item = C11G U31C A36C ; retrieve measured self-cleavage kobs at 10000 uM GlcN6P.
Outgoing: < 1e-05 s⁻¹

Incoming: Param item = G7U U46C C70G ; retrieve measured self-cleavage kobs at 10000 uM GlcN6P.
Outgoing: < 1e-05 s⁻¹

Incoming: Param item = A6C C61A ; retrieve measured self-cleavage kobs at 10000 uM GlcN6P.
Outgoing: < 1e-05 s⁻¹

Incoming: Param item = C8A G62C ; retrieve measured self-cleavage kobs at 10000 uM GlcN6P.
Outgoing: < 1e-05 s⁻¹

Incoming: Param item = A33C G38U G41U G43A U56A ; retrieve measured self-cleavage kobs at 10000 uM GlcN6P.
Outgoing: < 1e-05 s⁻¹

Incoming: Param item = U30G G32C ; retrieve measured self-cleavage kobs at 10000 uM GlcN6P.
Outgoing: 0.000134 s⁻¹

Incoming: Param item = A14G U46G ; retrieve measured self-cleavage kobs at 10000 uM GlcN6P.
Outgoing: 0.00927 s⁻¹

Incoming: Param item = A6G A14G A53C ; retrieve measured self-cleavage kobs at 10000 uM GlcN6P.
Outgoing: 7.6e-05 s⁻¹

Incoming: Param item = A15C A39C ; retrieve measured self-cleavage kobs at 10000 uM GlcN6P.
Outgoing: 0.00112 s⁻¹

Incoming: Param item = A12G G38A G66U ; retrieve measured self-cleavage kobs at 10000 uM GlcN6P.
Outgoing: < 1e-05 s⁻¹

Incoming: Param item = A6C C8A ; retrieve measured self-cleavage kobs at 10000 uM GlcN6P.
Outgoing: < 1e-05 s⁻¹

Incoming: Param item = A39G G43U ; retrieve measured self-cleavage kobs at 10000 uM GlcN6P.
Outgoing: 0.000149 s⁻¹

Incoming: Param item = U30C G41A U54C ; retrieve measured self-cleavage kobs at 10000 uM GlcN6P.
Outgoing: < 1e-05 s⁻¹

Incoming: Param item = C11A U30G C67A ; retrieve measured self-cleavage kobs at 10000 uM GlcN6P.
Outgoing: 9.25e-05 s⁻¹

Incoming: Param item = G35U U45A U57C C67A C68A ; retrieve measured self-cleavage kobs at 10000 uM GlcN6P.
Outgoing: < 1e-05 s⁻¹

Incoming: Param item = G40A G41U ; retrieve measured self-cleavage kobs at 10000 uM GlcN6P.
Outgoing: 6.43e-05 s⁻¹

Incoming: Param item = A15C U47G G51A U56C ; retrieve measured self-cleavage kobs at 10000 uM GlcN6P.
Outgoing: < 1e-05 s⁻¹

Incoming: Param item = G13C A33G ; retrieve measured self-cleavage kobs at 10000 uM GlcN6P.
Outgoing: < 1e-05 s⁻¹

Incoming: Param item = U47C U49A ; retrieve measured self-cleavage kobs at 10000 uM GlcN6P.
Outgoing: < 1e-05 s⁻¹

Incoming: Param item = U30C G40C ; retrieve measured self-cleavage kobs at 10000 uM GlcN6P.
Outgoing: 3.87e-05 s⁻¹

Incoming: Param item = U47A U55G ; retrieve measured self-cleavage kobs at 10000 uM GlcN6P.
Outgoing: 0.0152 s⁻¹
